System: Hepatocytes
Test: Hepatocytes predicted clearance, mouse
Parameter class (string): assigned from measured Hepatocytes predicted clearance in mouse. Ranges: lower bin (below 40 mL/min/kg), middle bin (40 mL/min/kg to below 100 mL/min/kg), upper bin (100 mL/min/kg or more)

>  <Molecule>
CC(C)(O)c1cnc(N2C[C@@]3(CCC(F)(F)[C@](C)(Cn4cnc5ccc(C#N)cc54)C3)OC2=O)cn1

>  <Qualitative Label>
lower bin

$$$$
>  <Molecule>
CC(C)(O)c1cnc(N2C[C@@]3(CCC(F)(F)[C@H](Cn4cnc5ccc(C#N)cc54)C3)OC2=O)cn1

>  <Qualitative Label>
lower bin

$$$$
>  <Molecule>
CC(C)(O)c1cnc(N2C[C@@]3(CCC4(CC4)[C@](C)(Cn4cnc5ccc(C#N)cc54)C3)OC2=O)cn1 (single isomer, unassigned)

>  <Qualitative Label>
lower bin

$$$$
>  <Molecule>
CC(C)(O)c1cnc(N2C[C@@]3(CCC[C@](CF)(Cn4cnc5ccc(C#N)cc54)C3)OC2=O)cn1 (single isomer, unassigned)

>  <Qualitative Label>
middle bin

$$$$
>  <Molecule>
CC(C)(O)c1cnc(N2C[C@@]3(CC[C@@H](F)[C@](C)(Cn4cnc5ccc(C#N)cc54)C3)OC2=O)cn1 (single isomer, unassigned)

>  <Qualitative Label>
lower bin

$$$$
>  <Molecule>
C=C1CC[C@@]2(CN(c3cnc(C(C)(C)O)cn3)C(=O)O2)C[C@@]1(C)Cn1cnc2ccc(C#N)cc21 (single isomer, unassigned)

>  <Qualitative Label>
middle bin

$$$$
>  <Molecule>
CC(C)(O)c1cnc(N2C[C@@]3(CC[C@H]4C[C@@]4(Cn4cnc5ccc(C#N)cc54)C3)OC2=O)cn1 (single isomer, unassigned)

>  <Qualitative Label>
upper bin

$$$$
>  <Molecule>
CC(C)(C)CN1C[C@@]2(CCC(F)(F)[C@H](Cn3cnc4ccc(C#N)cc43)C2)OC1=O (single isomer, unassigned)

>  <Qualitative Label>
upper bin

$$$$
>  <Molecule>
CC(C)(O)c1cnc(N2C[C@@]3(CCC4(CC4)[C@@H](Cn4cnc5ccc(C#N)cc54)C3)OC2=O)cn1 (single isomer, unassigned)

>  <Qualitative Label>
upper bin

$$$$
>  <Molecule>
CC(C)(O)c1cnc(N2C[C@@]3(CCC(C)(C)[C@H](Cn4cnc5ccc(C#N)cc54)C3)OC2=O)cn1 (single isomer, unassigned)

>  <Qualitative Label>
upper bin

$$$$
>  <Molecule>
CC(C)(O)c1cnc(N2C[C@@]3(CCC[C@](C)(Cn4cnc5ccc(C#N)cc54)C3)OC2=O)cn1 [GSK2798745, reference compound]

>  <Qualitative Label>
middle bin

$$$$
>  <Molecule>
N#Cc1ccc2ncn(C[C@@H]3C[C@@]4(CCC3(F)F)CN(c3ccccc3Cl)C(=O)O4)c2c1 (single isomer, unassigned)

>  <Qualitative Label>
upper bin

$$$$
>  <Molecule>
CC1(C)C[C@](C)(Cn2cnc3ccc(C#N)cc32)C[C@@]2(CN(c3cnc(C(C)(C)O)cn3)C(=O)O2)C1 (single isomer, unassigned)

>  <Qualitative Label>
upper bin

$$$$

====

System: Hepatocytes
Assay: Hepatocytes predicted clearance, dog
Test Readout: Hepatocytes predicted clearance in dog (mL/min/kg)

>  <Compound>
C=C1CC[C@@]2(CN(c3cnc(C(C)(C)O)cn3)C(=O)O2)C[C@@]1(C)Cn1cnc2ccc(C#N)cc21 (single isomer, unassigned) [Example 16]

>  <Result Unit>
mL/min/kg

>  <Observed Result>
4

$$$$
>  <Compound>
CC(C)(O)c1cnc(N2C[C@@]3(CC[C@H]4C[C@@]4(Cn4cnc5ccc(C#N)cc54)C3)OC2=O)cn1 (single isomer, unassigned) [Example 8]

>  <Result Unit>
mL/min/kg

>  <Observed Result>
30

$$$$
>  <Compound>
CC(C)(O)c1cnc(N2C[C@@]3(CCC4(CC4)[C@](C)(Cn4cnc5ccc(C#N)cc54)C3)OC2=O)cn1 (single isomer, unassigned) [Example 6]

>  <Result Unit>
mL/min/kg

>  <Observed Result>
3.17

$$$$
